Biological target: T1, PUF4 RNA-binding domain (Saccharomyces cerevisiae, UniProt P25339 537-888)
T1 sequence: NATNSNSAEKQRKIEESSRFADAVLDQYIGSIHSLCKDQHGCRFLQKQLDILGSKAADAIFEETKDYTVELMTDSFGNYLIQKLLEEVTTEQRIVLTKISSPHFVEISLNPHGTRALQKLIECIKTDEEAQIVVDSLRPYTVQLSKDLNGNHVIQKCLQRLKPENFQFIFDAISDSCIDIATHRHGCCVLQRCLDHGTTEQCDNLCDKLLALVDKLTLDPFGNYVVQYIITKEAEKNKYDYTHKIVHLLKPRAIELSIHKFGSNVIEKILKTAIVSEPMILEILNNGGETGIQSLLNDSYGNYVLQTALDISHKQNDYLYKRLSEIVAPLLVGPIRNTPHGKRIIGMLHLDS
Assay: Mg; RNA-MaP; 20 mM Na-HEPES pH 7.4, 30 mM KOAc, 0.75 mM MgCl2, 0.1% Tween-20, 5% glycerol, 0.1 mg/mL BSA, 2 mM DTT; 25 C; 0.0125-409.6 nM protein
Conditions: tags: N-His6-TEV cleaved; C-SNAP kept, Cy3B-labelled; label: tethered on chip by stalled RNA polymerase
Overview of reported log10(Kd) across a group of binders:
Response schema: value (number) is log10 of Kd in units of nM.

Below: 2 binders and their reported log10(Kd).
Id_ii_S4_P4E.3_K4.2_C4.2_[C-2T]_[T-1C]_H4.2_A4.1_F4.1_T4.2_[G10C]_[T11A] (ssRNA) RNA: UUUGACAACUGAUCGUUCUUUCUUCUAUAUAUUACAUUCUUUCUCGAUCAGUUGUCUUU : 1.10
Ic_S2_P3E.1_K3.1_C3.1_H3.1_A3.1_[A6C]_F3.1_[T7A]_[A8G]_T3.1 (ssRNA) RNA: UUUGAUUAAUAUGAUAUCGUUCUUUCUUGUAUCAGUUCUUUCUCGAUAUCAUAUUAAUCUUU : 2.32

What value of log10(Kd) has been reported for the following binder? Id_ii_S4_P3E.3_K3.2_C3.2_[T-1A]_H3.2_A3.1_F3.1_T3.2_[T9A] (ssRNA) RNA: UUUGACAACUGAUCGUUCUUUCUCAUAUAUAUAAAUUCUUUCUCGAUCAGUUGUCUUU
2.93

What value of log10(Kd) has been reported for the following binder? UCUCUUUGUAACAAUCUCUU (ssRNA) [Ic_S1_P3E.1_K3.1_C3.1_H3.1_A3.1_[T5A]_[A6C]_F3.1_[T7A]_T3.1]
2.00

What value of log10(Kd) has been reported for the following binder? Id_ii_S2_P4E.2_K4.1_C4.2_[C-2T]_[T-1A]_H4.1_A4.1_F4.1_T4.2_[G10C]_[T11C] (ssRNA) RNA: UUUGAUUAAUAUGAUAUCGUUCUUUCUUAUGUAUAUUACCUUCUUUCUCGAUAUCAUAUUAAUCUUU
-0.09

What value of log10(Kd) has been reported for the following binder? Id_ii_S2_P4E.2_K4.1_C4.2_[C-2T]_[T-1G]_H4.1_A4.1_F4.1_T4.2_[G10A]_[T11A] (ssRNA) RNA: UUUGAUUAAUAUGAUAUCGUUCUUUCUUGUGUAUAUUAAAUUCUUUCUCGAUAUCAUAUUAAUCUUU
-0.27

What value of log10(Kd) has been reported for the following binder? Ic_S4_P3E.1_K3.1_C3.1_H3.1_A3.1_[A6G]_F3.1_T3.1 (ssRNA) RNA: UUUGACAACUGAUCGUUCUUUCUUGUAUGUAUUCUUUCUCGAUCAGUUGUCUUU
1.44

What value of log10(Kd) has been reported for the following binder? Ic_S2_P4E.1_K4.1_C4.1_H4.1_A4.1_[T5G]_[A6C]_[T7G]_F4.1_[T8C]_[A9C]_T4.1 (ssRNA) RNA: UUUGAUUAAUAUGAUAUCGUUCUUUCUUGUAGCGCCUUCUUUCUCGAUAUCAUAUUAAUCUUU
2.88
